// provenance: patent EP2548876A1

Target chain: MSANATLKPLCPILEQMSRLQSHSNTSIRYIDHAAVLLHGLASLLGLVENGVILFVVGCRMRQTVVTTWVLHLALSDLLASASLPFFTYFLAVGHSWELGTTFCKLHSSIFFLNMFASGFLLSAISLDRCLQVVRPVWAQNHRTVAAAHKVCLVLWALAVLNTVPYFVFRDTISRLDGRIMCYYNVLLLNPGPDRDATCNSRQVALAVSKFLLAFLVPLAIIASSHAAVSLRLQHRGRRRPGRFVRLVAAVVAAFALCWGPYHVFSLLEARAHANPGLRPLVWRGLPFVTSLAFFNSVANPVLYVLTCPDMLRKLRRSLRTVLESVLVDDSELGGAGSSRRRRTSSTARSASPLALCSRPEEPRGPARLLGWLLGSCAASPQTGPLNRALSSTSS
pIC50: −log10 of the molar value.
Hi, to clarify the labels: 1 covers pIC50 from 8 upward, 0 covers anything below 8.

- CCN(Cc1cc(F)ccc1-n1cc(CC(=O)O)c2ccc(C)nc21)C(=O)C1CC1 [Example 16]: 1
- CCN(Cc1cc(F)ccc1-c1cc(CC(=O)O)n2cccnc12)C(=O)C1CC1 [Example 21]: 0

====

Molecular target: CRTh2 receptor (Homo sapiens, UniProt Q9Y5Y4)
pIC50: −log10 of the molar value.
quantity-measured: pIC50

* CCN(Cc1cc(C(F)(F)F)ccc1-n1cc(CC(=O)O)c2cccnc21)C(=O)C1CC1 | 8.05
* CCN(Cc1cc(C(F)(F)F)ccc1-c1cc(CC(=O)O)n2ccc(C)nc12)C(=O)C1CC1 | 8.15
* CCN(Cc1cc(C(F)(F)F)ccc1-c1cn(CC(=O)O)c2cccnc12)C(=O)C1CC1 | 7.82
